target: T1, Purified recombinant human CD26 (rhDipeptidyl peptidase IV), R&D Systems CAT #1180-SE (human, UniProt P27487 29-766); assay: SPR (Biacore), Fab
T1 construct: Bought recombinant protein; also called hu-CD26; soluble human CD26
T1 sequence (P27487 29-766 limits assumed): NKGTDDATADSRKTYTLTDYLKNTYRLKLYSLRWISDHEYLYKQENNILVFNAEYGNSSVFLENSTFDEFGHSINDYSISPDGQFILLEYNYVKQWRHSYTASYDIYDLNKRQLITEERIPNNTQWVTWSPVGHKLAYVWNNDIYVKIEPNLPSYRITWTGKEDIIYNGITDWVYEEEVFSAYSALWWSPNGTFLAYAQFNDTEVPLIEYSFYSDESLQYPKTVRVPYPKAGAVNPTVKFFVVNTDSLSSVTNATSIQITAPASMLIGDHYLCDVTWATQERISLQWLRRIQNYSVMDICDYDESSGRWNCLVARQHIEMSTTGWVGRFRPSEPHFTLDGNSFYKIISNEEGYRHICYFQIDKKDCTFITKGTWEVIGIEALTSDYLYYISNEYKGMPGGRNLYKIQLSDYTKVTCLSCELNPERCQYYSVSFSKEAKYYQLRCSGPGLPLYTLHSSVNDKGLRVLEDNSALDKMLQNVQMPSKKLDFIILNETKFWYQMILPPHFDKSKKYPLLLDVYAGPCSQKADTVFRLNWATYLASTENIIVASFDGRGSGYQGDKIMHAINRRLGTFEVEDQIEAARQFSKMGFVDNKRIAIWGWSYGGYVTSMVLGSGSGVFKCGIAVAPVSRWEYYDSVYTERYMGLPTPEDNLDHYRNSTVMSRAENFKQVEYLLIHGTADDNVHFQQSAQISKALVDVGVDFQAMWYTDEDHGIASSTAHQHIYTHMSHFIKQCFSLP

{"BINDER": "Fab X390 (X385 VH and X376 VL) (Fab, V domains shown, Fab made in E. coli) VH: EVQLVQSGGGVKQPGETLRLTCTASGFSLTTYGVHWVRQAPGKGLEWVGVIWGDGRTDYDAAFMSRVTISKDTSKSTAYLQMNSLRAEDTAVYYCMRNRHDWFDYWGQGTTVTVSS VL: DILMTQSPSSLSASPGDRVTISCRASQDIRNNLNWYQQKPGQAPRLLIYYSSNLHSGVPDRFSGSGSGTDFTLTISRLEPEDFAAYYCQQSIKLPLTFGSGTKVEIK", "MEASUREMENT_UNIT": "nM", "Kd": 0.96}
{"BINDER": "Fab X430 (X399 VH and X394 VL) (Fab, V domains shown, also called Fab X429) VH: EVQLVQSGGGVKQPGETLRLTCTASGFSLSTYGVHWVRQAPGKGLEWVGVIWGDGRTDYDAAFMSRVTISKDTSKSTVYLQMNSLRAEDTAVYYCMRNRHDWFDYWGQGTTVTVSS VL: DILMTQSPSSLSASPGDRVTISCRASQDIRNNLNWYQQKPGQAPRLLIYYSSNLQTGVPARFSGSGSGTDFTLTISRLEPEDFAAYYCQQSIKLPLTFGSGTKVEIK", "MEASUREMENT_UNIT": "nM", "Kd": 1.19}
{"BINDER": "CM03 Fab X369 (Fab, V domains shown, Recombinant Fab made in E. coli; also called CM03 X369; CM03 (X369)) VH: QVKLQESGPGLVQPSQTLSITCTVSGFSLTTYGVHWVRQSPGKGLEWLGVIWGGGRTDYDAAFISRLSISKDNSKSQVFFKMNSLQANDTAIYYCVRNRHDWFDYWGQGTTVTVSS VL: DIQMTQSPSSLSASLGDRVTITCSASQGIRNSLNWYQQKPDGAVKLLIYYSSNLHSGVPSRFSGSGSGTDFSLTISNLEPEDIATYYCQQSIKLPFTFGSGTKLEIK", "MEASUREMENT_UNIT": "nM", "Kd": 1.63}
{"BINDER": "Fab X392 (X384 VH and X379 VL) (Fab, V domains shown, Fab made in E. coli) VH: EVQLVESGAGVKQPGGTLRLTCTASGFSLTTYGVHWVRQAPGKGLEWVGVIWGDGRTDYDAAFMSRVTISKDTSKSTVYLQMNSLRAEDTAVYYCMRNRHDWFDYWGQGTTVTVSS VL: DILLTQSPSSLSATPGERATITCRASQGIRNNLNWYQQKPGQAPRLLIYYSSNLQSGVPSRFSGSGSGTDFTLTISRLQPEDVAAYYCQQSIKLPFTFGSGTKVEIK", "MEASUREMENT_UNIT": "nM", "Kd": 0.24}
{"BINDER": "Fab X395 (X384 VH and X380 VL) (Fab, V domains shown, Fab made in E. coli) VH: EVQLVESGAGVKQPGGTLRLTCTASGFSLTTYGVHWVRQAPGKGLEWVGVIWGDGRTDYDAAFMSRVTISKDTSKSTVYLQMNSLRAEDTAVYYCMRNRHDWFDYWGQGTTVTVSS VL: EIEMTQSPSSLSVSAGERATISCSASQDIRNSLNWYQQKPGQAPRLLIYYSSNLHTGVPARFSGSGSGTDFTLTISRLEPEDVAIYYCQQSNKLPLTFGSGTKVEIK", "MEASUREMENT_UNIT": "nM", "Kd": 3.26}

The values you see were collected from patent US20070105771A1.
